system: MT4 CMV-EGFP cells; experiment: Cytotoxicity in mock-infected MT4 CMV-EGFP cells; assay type: cell-based, human; conditions: fluorescence reduced by 50%
CC50 values by entry
measure.name: CC50

INSERT INTO assay_data (smiles_structure, target_entity, test_result) VALUES
  ('N#Cc1c(N)c2ccc(Cl)cc2n(-c2ccc([N+](=O)[O-])cc2)c1=O', 'MT4 CMV-EGFP cells', '> 32 µM'),
  ('CN(C)CCCOc1ccc2cc(C#N)c(=O)n(-c3ccc([N+](=O)[O-])cc3)c2c1', 'MT4 CMV-EGFP cells', '70.6 µM'),
  ('N#Cc1cc2ccc(-c3cncs3)cc2n(-c2ccc([N+](=O)[O-])cc2)c1=O', 'MT4 CMV-EGFP cells', '25.8 µM'),
  ('N#Cc1cc2ccc(-c3cccs3)cc2n(-c2ccc([N+](=O)[O-])cc2)c1=O', 'MT4 CMV-EGFP cells', '> 100 µM'),
  ('N#Cc1cc2ccc(OCCN3CCOCC3)cc2n(-c2ccc([N+](=O)[O-])cc2)c1=O', 'MT4 CMV-EGFP cells', '> 32 µM'),
  ('CC(=O)NCCCOc1ccc2cc(C#N)c(=O)n(-c3ccc([N+](=O)[O-])cc3)c2c1', 'MT4 CMV-EGFP cells', '> 100 µM'),
  ('N#Cc1cc2ccc(OCCO)cc2n(-c2ccc([N+](=O)[O-])cc2)c1=O', 'MT4 CMV-EGFP cells', '> 32 µM'),
  ('N#Cc1cc2ccc(-c3ccccn3)cc2n(-c2ccc([N+](=O)[O-])cc2)c1=O', 'MT4 CMV-EGFP cells', '> 100 µM'),
  ('N#Cc1cc2ccc(-c3cnccn3)cc2n(-c2ccc([N+](=O)[O-])cc2)c1=O', 'MT4 CMV-EGFP cells', '> 100 µM'),
  ('N#Cc1cc2ccc(OCCCNCCO)cc2n(-c2ccc([N+](=O)[O-])cc2)c1=O', 'MT4 CMV-EGFP cells', '> 32 µM'),
  ('N#Cc1cc2cc(OCCCN)ccc2n(-c2ccc([N+](=O)[O-])cc2)c1=O', 'MT4 CMV-EGFP cells', '15.5 µM'),
  ('N#Cc1ccc(-n2c(=O)c(C#N)cc3ccccc32)cc1', 'MT4 CMV-EGFP cells', '> 32 µM'),
  ('N#Cc1cc2ccc(-c3nccs3)cc2n(-c2ccc([N+](=O)[O-])cc2)c1=O', 'MT4 CMV-EGFP cells', '5.02 µM'),
  ('Cc1ccc(-n2c(=O)c(C#N)cc3ccc(Cl)cc32)cc1C#N', 'MT4 CMV-EGFP cells', '> 100 µM'),
  ('COCCNc1ccc2cc(C#N)c(=O)n(-c3ccc([N+](=O)[O-])cc3)c2c1', 'MT4 CMV-EGFP cells', '> 32 µM'),
  ('N#Cc1cc2ccc(-c3cccc(O)c3)cc2n(-c2ccc([N+](=O)[O-])cc2)c1=O', 'MT4 CMV-EGFP cells', '> 100 µM'),
  ('N#Cc1cc2ccc(OCCCCN)cc2n(-c2ccc([N+](=O)[O-])cc2)c1=O', 'MT4 CMV-EGFP cells', '> 32 µM');

---

tested on: wild-type HIV-IIIB strain; experiment: Antiviral analysis EGFP: anti-HIV activity in MT4 LTR-EGFP cells; assay type: cell-based, HIV-1; conditions: fluorescence of HIV-infected cells reduced by 50%, three days after infection
pEC50: −log10 of the molar value.
Please note: Condition met applies when pEC50 is 5 or greater, and Condition not met applies otherwise.

INSERT INTO measurements (smiles_structure, group) VALUES
  ('N#Cc1c(NCCN)c2ccccc2n(-c2ccc([N+](=O)[O-])cc2)c1=O', 'Condition met'),
  ('CCC(CC)NCCCOc1ccc2cc(C#N)c(=O)n(-c3ccc([N+](=O)[O-])cc3)c2c1', 'Condition met'),
  ('N#Cc1c(N)c2ccccc2n(-c2ccc(Cl)nc2)c1=O', 'Condition not met'),
  ('N#Cc1cc2ccc(OCCO)cc2n(-c2ccc([N+](=O)[O-])cc2)c1=O', 'Condition met'),
  ('Cc1ccc(-n2c(=O)c(C#N)cc3ccc(-c4cscn4)cc32)cc1C#N', 'Condition met'),
  ('Cc1ccc2c(N)c(C#N)c(=O)n(-c3ccc([N+](=O)[O-])cc3)c2c1', 'Condition met'),
  ('Cc1ccc(-n2c(=O)c(C#N)cc3ccccc32)cn1', 'Condition not met'),
  ('N#Cc1cc2ccc(-c3cncs3)cc2n(-c2ccc([N+](=O)[O-])cc2)c1=O', 'Condition met'),
  ('N#Cc1cc2ccc(-c3cccc(N)c3)cc2n(-c2ccc([N+](=O)[O-])cc2)c1=O', 'Condition met'),
  ('Cc1ccc(-n2c(=O)c(C#N)c(N)c3ccc(-c4cccs4)cc32)cc1C#N', 'Condition met'),
  ('CC(=O)Nc1cccc(-c2ccc3cc(C#N)c(=O)n(-c4ccc([N+](=O)[O-])cc4)c3c2)c1', 'Condition not met'),
  ('N#Cc1c(N)c2ccc(C(F)(F)F)cc2n(-c2ccc([N+](=O)[O-])cc2)c1=O', 'Condition met'),
  ('N#Cc1cc2ccc(-c3cccnc3)cc2n(-c2ccc([N+](=O)[O-])cc2)c1=O', 'Condition met'),
  ('N#Cc1cc2cc(OCCCN)ccc2n(-c2ccc([N+](=O)[O-])cc2)c1=O', 'Condition met'),
  ('CCN(CC)CCCOc1ccc2cc(C#N)c(=O)n(-c3ccc([N+](=O)[O-])cc3)c2c1', 'Condition met'),
  ('N#Cc1cc2ccc(-c3ccncc3)cc2n(-c2ccc([N+](=O)[O-])cc2)c1=O', 'Condition met'),
  ('N#Cc1cc2ccc(NCCN)cc2n(-c2ccc([N+](=O)[O-])cc2)c1=O', 'Condition met'),
  ('N#Cc1cc2cc(OC[C@H]3CCCN3)ccc2n(-c2ccc([N+](=O)[O-])cc2)c1=O', 'Condition met'),
  ('CN(C)Cc1cccc(-c2ccc3cc(C#N)c(=O)n(-c4ccc([N+](=O)[O-])cc4)c3c2)c1', 'Condition met'),
  ('N#Cc1c(NCCc2c[nH]cn2)c2ccccc2n(-c2ccc([N+](=O)[O-])cc2)c1=O', 'Condition met'),
  ('N#Cc1cc2ccc(OCCCN3CCCCC3)cc2n(-c2ccc([N+](=O)[O-])cc2)c1=O', 'Condition met'),
  ('N#Cc1c(NCc2ccccn2)c2ccccc2n(-c2ccc([N+](=O)[O-])cc2)c1=O', 'Condition not met'),
  ('N#Cc1cc2ccc(NCCCN)cc2n(-c2ccc([N+](=O)[O-])cc2)c1=O', 'Condition met'),
  ('N#Cc1cc2ccc(-c3nccs3)cc2n(-c2ccc([N+](=O)[O-])cc2)c1=O', 'Condition met'),
  ('N#Cc1cc2ccc(NCCN3CCOCC3)cc2n(-c2ccc([N+](=O)[O-])cc2)c1=O', 'Condition met'),
  ('CC(=O)NCCNc1c(C#N)c(=O)n(-c2ccc([N+](=O)[O-])cc2)c2ccccc12', 'Condition not met');
